experiment: Stability assay, resistance to degradation in fetal bovine serum
Assay type: in vitro ADME
run-conditions: GIBCO fetal bovine serum, six hours of exposure, RP-LC peak area, three independent replicates; read-out: Remaining peptide after exposure to fetal bovine serum
Method: Fig. 6 Hemolysis and resistance to protease-mediated degradation of engineered peptides. a Schematic of experimental design and hemolytic assay results of Pol-CP-NH2 and derivatives, where hemolytic activity was evaluated by incubating the peptides (0.1–100 μmol L^−1) with human red blood cells in PBS at room temperature for 1 h. Experiments were performed in three independent replicates. b Resistance to degradation of Pol-CP-NH2 and analogs exposed to fetal bovine serum (FBS) proteases for 6 h. […]
No end group written: not given here.
observable: remaining at 6 h

Data request: Item ILGKILGLLKSL-NH2 [Peptide 15, [Lys]^4-Pol-CP-NH2] has what recorded remaining at 6 h?
Data returned: ~50%
